B1: TCAP (parent)
chain: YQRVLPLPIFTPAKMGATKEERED

- Variants of: B1
- PROCEDURE_SUMMARY: protein stability index of a GFP-peptide fusion (GPS, HEK-293T) (PSI 1-6); higher = more stable;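 note: lentivirally expressed fusions sorted by FACS into six bins by GFP to DsRed ratio, PSI derived from sequencing read proportions per bin multiplied by bin number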
- STATED_CONDITIONS: c terminus: a fixed tail appended
MEASUREMENT_TYPE: protein stability index
Please give the numeric answer without any surrounding text.

Record excerpt, results attached:
                     sequence_data         measurement_type  measured_value
0  YQRVLPLPIFTPAKMTATKEERED [G16T]  protein stability index            1.95
1  YQRVLPLPIFTPAKMGATHEERED [K19H]  protein stability index             1.8

Supply measured protein stability index of YQRVLPLPIFTPDKMGATKEERED [A13D] in your reply.
2.95

Supply measured protein stability index of YQRVLPLPKFTPAKMGATKEERED [I9K] in your reply.
3.96

Supply measured protein stability index of YQRLLPLPIFTPAKMGATKEERED [V4L] in your reply.
2.18

Supply measured protein stability index of YQRVLPLPIFTFAKMGATKEERED [P12F] in your reply.
2.98

Supply measured protein stability index of YVRVLPLPIFTPAKMGATKEERED [Q2V] in your reply.
1.99

Supply measured protein stability index of YQRVLPLPIFTPAKLGATKEERED [M15L] in your reply.
2.42

Supply measured protein stability index of SQRVLPLPIFTPAKMGATKEERED [Y1S] in your reply.
5.4

Supply measured protein stability index of YQRVLPLPIFTPAKMGATKEARED [E21A] in your reply.
1.91

Supply measured protein stability index of YQRVLPLPIFTPAKMGATKEEREA [D24A] in your reply.
1.82

Supply measured protein stability index of YQRVLPLPIFTPAKMGATKEHRED [E21H] in your reply.
2.22

Supply measured protein stability index of YQDVLPLPIFTPAKMGATKEERED [R3D] in your reply.
2.03
